# Tested on: NCI-H322M lung
# procedure_summary: NCI-60 one-dose screen, 48 h (100 = growth as untreated, 0 = no growth, -100 = all killed)
# assay_context: 10 µM unless noted
# Experimental: Growth inhibition of the NCI-H322M human Non-Small Cell Lung tumor cell line is measured as a screen for anti-cancer activity. Cells are grown in 96 well plates and exposed to the test compound for 48 hours. Compounds are tested at a single concentration, which is 10^-5 M for most compounds. The reported endpoint is percent growth (GI% or GIPRCNT), where numbers from 0 - 100% represent growth inhibition, and numbers from -100% - 0 represent cell death. […]
Compounds without any hit were thinned out: in the full panel of roughly 83,000, 20% have a hit.
A collection of compounds and their measured growth

{"columns": ["compound", "unit_label", "growth"],
 "data": [
  ["COc1ccc(-c2cc(C(=O)Nc3ccc(Br)cc3)nc3[nH]c(=O)sc23)cc1", "%", 46.8],
  ["Nc1c(C(=O)C[C@@H](N)CO)ccc2c1C(=O)CCO2", "%", 16.7],
  ["CCN(CC)CCCCCCCCNc1c2ccc(Cl)cc2nc2ccc(OC)cc12", "%", -39.2],
  ["CC(C)(C)[Si](C)(C)OC1[C@@H](CNC(N)=O)O[C@@H](n2cnc3c(NC(=O)Nc4ccccc4)ncnc32)[C@H]1O[Si](C)(C)C(C)(C)C (stereo partly specified)", "%", 119],
  ["COc1ccc(C2NC(=O)c3cc4c(cc3N2)OCO4)cc1 (stereo unspecified)", "%", 50.4],
  ["CCN(CC)CC(=O)Nc1c(C)ccc(N)c1C", "%", 90.2],
  ["Cc1ccc(OC2=C(C#N)C(=N)N3C(=NN2)Sc2c(C)ccc(C)c23)cc1", "%", 102],
  ["O=C(c1ccccc1)c1cccc(C(Br)Br)c1", "%", 95.1],
  ["O=c1c2cc(Cl)ccc2oc2ccc(OCCCCCN3CCCCC3)cc12", "%", 89.7],
  ["COc1ccc(-c2cc(-c3cc4ccccc4oc3=O)n(-c3ccccc3)n2)cc1", "%", 78.1],
  ["ClC1=NC(Cl)C(Cl)=N/C1=N\\c1ncn[nH]1 (stereo unspecified)", "%", 89.2],
  ["CCC1=CC2CN(C1)Cc1c([nH]c3ccccc13)[C@@](C(=O)OC)(c1cc3c(cc1OC)N(C)[C@H]1[C@@](O)(C(=O)OC)[C@H](OC(C)=O)[C@]4(CC)C=CCN5CC[C@]31[C@@H]54)C2 (stereo partly specified)", "%", 70],
  ["COc1ccc2c(c1)OC1=C(C(=O)OC1)C2c1cc(OC)c2c(c1)OCCO2 (stereo unspecified)", "%", 44.3],
  ["N=C(N)c1ccc(-c2ccc(-c3cccs3)s2)cc1F", "%", -92.4],
  ["O=C1CCCN1C(O)CCN(Cc1ccccc1)Cc1ccc(Cl)cc1 (stereo unspecified)", "%", 95.5],
  ["O=C(c1ccccc1)C(CCc1ccccn1)CCc1ccccn1", "%", 117],
  ["CC(C)CC(=O)C(CCc1ccccn1)C(C)C (stereo unspecified)", "%", 116],
  ["CCOC(=O)Cn1c(-c2nonc2NC(=O)c2ccccc2F)nc2ccccc21", "%", 67.3],
  ["c1ccc(-c2nnn(-c3ccccc3)n2)cc1", "%", 100],
  ["COc1cc(NCCC2CCCCN2)c2ncccc2c1OC (stereo unspecified)", "%", 116],
  ["OC(CCCCCCCCC(O)CN1CCc2ccccc2C1)CN1CCc2ccccc2C1 (stereo unspecified)", "%", 87.5]
]}

Reference source for all entries: PubChem BioAssay (NCI)
